# Tested on: HPPD polypeptides (wild-type SEQ ID NO:1 and mutants)
# RUN_PARAMETERS: in the presence of Cmpd. 2, 15 μM inhibitor, high substrate concentration; total change in signal normalized to no inhibitor
Listed below: Residual turnover values for each entry.
Report only the number, with the unit % understood.

Known results for molecules:
- MOLECULE: "17 (protein, mutant HPPD polypeptide) MADLYENPMGLMGFEFIEFASPTPGTLEPIFEIMGFTKVATHRSKNVHLYRQGEINLILNNEPNSIASYFAAEHGPSVCGMAFRVKDSQKAYNRALELGAQPIHIDTGPMELNLPAIKGIGGAPLYLIDRFGEGSSIYDIDFVYLEGVERNPVGAGLKVIDHLTHNVYRGRMVYWANFYEKLFNFREARYFDIKGEYTGLTSKAMSAPDGMIRIPLNEESSKGAGQIEEFLMQFNGEGIQHVAFLTDDLVKTWDALKKIGMRFMTAPGDEYYEMLEGRLPDHGEPVDQLQARGILLDGSSVEGDKRLLLQIFSETLMGPVFFEFIQRKGDDGFGPDSFKVLFESVERDQVRRGVLTAD"
  READOUT_NAME: "Residual turnover"
  TEST_RESULT: 90
- MOLECULE: "21 (protein, mutant HPPD polypeptide) MADLYENPMGLMGFEFIEFASPTPGTLEPIFEIMGFTKVATHRSKNVHLYRQGEINLILNNEPNSIASYFAAEHGPSVCGMAFRVKDSQKAYNRALELGAQPIHIDTGPMELNLPAIKGIGGAPLYLIDRFGEGSSIYDIDFVYLEGVERNPVGAGLKVIDHLTHNVYRGRMVYWANFYEKLFNFREARYFDIKGEYTGLTSKAMSAPDGMIRIPLNEESSKGAGQIEEFLMQFNGEGIQHVAFLTDDLVKTWDALKKIGMRFMTAPPDTYYEMLEGRLPDHGEPVDQLQARGILLDGSSVEGDKRLLLQIFSETLMGPVFFEFIQRKGDDGFGPHSFKALFESIERDQVRRGVLTAD"
  READOUT_NAME: "Residual turnover"
  TEST_RESULT: 84

Continue with the molecule presented below.
Can you share its Residual turnover? I mean this molecule: 7 (protein, mutant HPPD polypeptide) MADLYENPMGLMGFEFIEFASPTPGTLEPIFEIMGFTKVATHRSKNVHLYRQGEINLILNNEPNSIASYFAAEHGPSVCGMAFRVKDSQKAYNRALELGAQPIHIDTGPMELNLPAIKGIGGAPLYLIDRFGEGSSIYDIDFVYLEGVERNPVGAGLKVIDHLTHNVYRGRMVYWANFYEKLFNFREARYFDIKGEYTGLTSKAMSAPDGMIRIPLNEESSKGAGQIEEFLMQFNGEGIQHVAFLTDDLVKTWDALKKIGMRFMTAPPDTYYEMLEGRLPDHGEPVDQLQARGILLDGSSVEGDKRLLLQIFSETLMGPVFFEFIQRKGDDGFGPDSFKALFESIERDQVRRGVLTAD
83
